Source of measurements: PubChem BioAssay AID1159580

# normalized growth listing for each entry below
test: chemical genetic growth profiling, strain panel (AID 1159580);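 note: tested at 20 µM; growth read once vehicle control cultures reached saturation at 30 °C; 1 = growth at the plate median or of vehicle wells; lower values mean less growth of the strain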; settings: S. cerevisiae deletion strains, growth OD, locus YBR023C, strain chs3, stronger effect = lower value
Among all 5,500 compounds or so, about 2,000 (36%) were called active. About 18% were inconclusive and are not listed. This is one part of the list.
// response body must contain only the number

{"COMPOUND": "O=c1cccc2n1CC1CC2CN2CCCC[C@@H]12 (some centres undefined)", "normalized growth": 0.974}

Look up normalized growth for this compound: CC(=O)O[C@@H]1CC2C(C)(C)C(=O)C3OC3[C@]2(C)C2CC[C@@]3(C)[C@H](c4ccoc4)OC(=O)C4OC43[C@@]21C (some centres undefined)
0.982

Look up normalized growth for this compound: CC1(C)N([O-])[N+](=O)C1(C)Br (centres undefined)
0.983

Look up normalized growth for this compound: C[C@@H]1CC[C@H]2C(C)(C)C3CC12CC[C@@]3(C)O (some centres undefined)
0.7

Look up normalized growth for this compound: CC(=O)O[C@@H]1CC2C(C)(C)[C@H](O)C=C[C@]2(C)C2CC[C@@]3(C)[C@H](c4ccoc4)OC(=O)C4OC43[C@@]21C (some centres undefined)
1.03
